System: T1, NHERF3_4, Q5T2W1
T1 sequence (Q5T2W1 373-468, limits assumed, looked up): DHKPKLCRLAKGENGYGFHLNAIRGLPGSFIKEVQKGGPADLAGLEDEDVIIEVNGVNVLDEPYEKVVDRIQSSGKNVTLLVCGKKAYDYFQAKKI
Measurement Description: holdup assay
Design: key: below the threshold = too weak to quantify, mostly under pKd 3.1 to 4
Applied Conditions: plain residues with an end cap or a label only (N-terminal biotin on a linker: ado-ado)
Reported Metric: pKd

INSERT INTO assay_data (binder, reported_metric, value_measured) VALUES
  ('PKSNSSKEYV [CLDN7, O95471]', 'pKd', 'below the threshold'),
  ('QLGSPTADLA [SIPA1, Q96FS4]', 'pKd', 'below the threshold'),
  ('GVHSNDHSVV [LPAR1, Q92633]', 'pKd', 'below the threshold'),
  ('NKSEPFLTWL [WWTR1, Q9GZV5]', 'pKd', 4.15),
  ('VCMGDHWFDV [PRKN, O60260]', 'pKd', 'below the threshold'),
  ('FLVTEFNVML [DFNB31, Q9P202]', 'pKd', 4.55),
  ('PLATCDETSI [SEMA4F, O95754]', 'pKd', 'below the threshold'),
  ('GNDPDRGTSI [GRID2, O43424]', 'pKd', 'below the threshold'),
  ('DSEEELPTRL [GRK6, P43250]', 'pKd', 3.79),
  ('MQILSKPEFI [NPSR1, Q6W5P4]', 'pKd', 3.51),
  ('NISARRFTLC [FAM167B, Q9BTA0]', 'pKd', 'below the threshold'),
  ('HYPASPDSWV [CTNND2, Q9UQB3]', 'pKd', 'below the threshold'),
  ('QKASRNESTF [POLR1D, P0DPB6]', 'pKd', 'below the threshold'),
  ('PSVYSRSQYV [CLDN8, P56748]', 'pKd', 4.13),
  ('RGKNRRQSIF [CDK18, Q07002]', 'pKd', 'below the threshold'),
  ('NSTHNLKDYV [CLDN20, P56880]', 'pKd', 'below the threshold'),
  ('FVFESRKEIL [TBPL1, P62380]', 'pKd', 'below the threshold'),
  ('IKLETKKTKL [SLC15A2, Q16348]', 'pKd', 4.77),
  ('PAALPESTHM [SLC9A3, P48764]', 'pKd', 3.52),
  ('GQNMTVSVVI [PRLHR, P49683]', 'pKd', 3.73),
  ('MLPANYVEAI [NEB, P20929]', 'pKd', 'below the threshold'),
  ('ELKAEDEVQI [DCHS2, Q6V1P9]', 'pKd', 'below the threshold'),
  ('STYCDYTIEI [FAM71C, Q8NEG0]', 'pKd', 'below the threshold'),
  ('LVEEEEPMNL [HDAC7, Q8WUI4]', 'pKd', 'below the threshold'),
  ('PLPPEEESWV [GAS2L2, Q8NHY3]', 'pKd', 'below the threshold'),
  ('TNSKQGETTV [FZD1, Q9UP38]', 'pKd', 'below the threshold'),
  ('KPDKQEEFYA [SDC3, O75056]', 'pKd', 'below the threshold'),
  ('PSDSVGKDVF [EGLN1, Q9GZT9]', 'pKd', 'below the threshold'),
  ('EPAKETTTNV [SLC2A3, P11169]', 'pKd', 'below the threshold'),
  ('QKNKDREYYV [NRXN3, Q9HDB5]', 'pKd', 'below the threshold'),
  ('SQDPKKPSRV [CBY2, Q8NA61]', 'pKd', 'below the threshold'),
  ('QRYPGNQTTC [CCL24, O00175]', 'pKd', 'below the threshold');
